Test system: CCRF-CEM
Assay: The growth inhibition activity for the compound was evaluated in CEM cells.
Format: functional, cell-based
Conditions: Homo sapiens
pIC50: −log10 of the molar value.
Observed Property: pIC50

Nc1ccn([C@@H]2O[C@H](CO)[C@@H](O)[C@@H]2F)c(=O)n1 :: < 4.00
Cc1cn([C@@H]2O[C@H](CO)[C@@H](O)[C@@H]2F)c(=O)[nH]c1=O [5-METHYL-2'-FLUOROARAURACIL] :: < 3.70

The record that follows has no pIC50 shown yet.
-- ask Entry under review: `O=c1[nH]c(=O)n([C@H]2O[C@@H](CO)[C@H](O)[C@@H]2F)cc1/C=C/Br` . Reported pIC50?
-- reply < 4.00

Hello, the source for this data is ChEMBL document CHEMBL1129238, in case you need it.
